I'd be grateful if you could share measured AC50 for these entries.
system: cysteine peptide Ac-RFAACAA-COOH; assay: AC50 of cysteine peptide concentration-response (direction given by sign of efficacy); higher = less potent; conditions: incubation time: 24 h
Quick reminder: number only, in µM, skip the unit.

Which AC50 value belongs to Cc1ccc(N)cc1O ?
33.1

Let us now turn to Nc1ccc2cc3ccccc3cc2c1
0.19

Let us now turn to O=[N+]([O-])c1cc(N(CCO)CCO)ccc1NCCO
18.7

Let us now turn to O=C1C=CC(=O)c2ccccc21
0.53

Let us now turn to Nc1ccc2ccccc2c1
0.53

Let us now turn to CC(C)CC(C)Nc1ccc(Nc2ccccc2)cc1 (stereo not given)
0.88

Let us now turn to C/C=C/C=C/CCCCCCCO
28.6

Let us now turn to O=C(CCl)c1ccccc1
49.4

Let us now turn to Nc1ccc2cc3ccc(N)cc3nc2c1 [Proflavin hemisulfate#]
11.9

Let us now turn to CC[C@@]1(O)C(=O)OCc2c1cc1n(c2=O)Cc2c-1nc1ccccc1c2/C=N/OC(C)(C)C
38.5

Let us now turn to COc1cc(C(C)(C)C)c(O)c(C(C)(C)C)c1
43.4

Let us now turn to N=C(N)NN=C(/C=C/c1ccc([N+](=O)[O-])o1)/C=C/c1ccc([N+](=O)[O-])o1
5.39

Let us now turn to CN(C)c1ccc(N(C)C)cc1
3.26

Let us now turn to Oc1c(I)cc(Cl)c2cccnc12
1.52

Let us now turn to C=CC(=O)OCCCCCCOC(=O)C=C [1,6-Hexanediol diacrylate]
50.1

Let us now turn to O=C1C(Cl)=C(Cl)C(=O)C(Cl)=C1Cl
0.65

Let us now turn to c1coc(-c2nc3ccccc3[nH]2)c1
12.3

Let us now turn to CCCCC1C(=O)N(c2ccccc2)N(c2ccc(O)cc2)C1=O (stereo not given)
2.39

Let us now turn to Nc1ccc(Nc2ccccc2)cc1
7.77

Let us now turn to Nc1ccc(Cl)cc1N
5.4

Values compiled from the supplement of paper PMC10933113.
